All values here come from ChEMBL document CHEMBL2417439.

subject.of.test: Amine oxidase [flavin-containing] B (Rattus norvegicus, UniProt P19643)
Sequence (P19643 whole entry): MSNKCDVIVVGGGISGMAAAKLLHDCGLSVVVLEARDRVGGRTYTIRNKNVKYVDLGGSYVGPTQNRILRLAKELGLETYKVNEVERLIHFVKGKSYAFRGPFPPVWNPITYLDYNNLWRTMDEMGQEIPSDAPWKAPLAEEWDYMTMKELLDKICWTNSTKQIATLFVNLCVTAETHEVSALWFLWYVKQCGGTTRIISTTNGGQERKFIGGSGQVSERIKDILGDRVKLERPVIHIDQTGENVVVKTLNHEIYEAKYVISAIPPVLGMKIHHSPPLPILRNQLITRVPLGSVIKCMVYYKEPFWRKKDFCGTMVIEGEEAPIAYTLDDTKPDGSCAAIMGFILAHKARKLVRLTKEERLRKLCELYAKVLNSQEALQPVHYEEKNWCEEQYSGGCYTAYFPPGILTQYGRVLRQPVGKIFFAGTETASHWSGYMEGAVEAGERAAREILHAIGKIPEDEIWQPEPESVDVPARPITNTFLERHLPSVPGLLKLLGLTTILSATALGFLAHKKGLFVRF
property.name: pIC50
A value of pIC50 is the negative decimal logarithm of a concentration given in moles per litre.

Identify measured pIC50 obtained with Amine oxidase [flavin-containing] B (Rattus norvegicus, UniProt P19643) for O=C(/C=C/c1ccc(O)cc1)c1ccc(O)cc1O .
4.33

---

Items are presented alongside their recorded IC50.
subject.of.test: Amine oxidase [flavin-containing] B (Homo sapiens, UniProt P27338)
Sequence (P27338 whole entry): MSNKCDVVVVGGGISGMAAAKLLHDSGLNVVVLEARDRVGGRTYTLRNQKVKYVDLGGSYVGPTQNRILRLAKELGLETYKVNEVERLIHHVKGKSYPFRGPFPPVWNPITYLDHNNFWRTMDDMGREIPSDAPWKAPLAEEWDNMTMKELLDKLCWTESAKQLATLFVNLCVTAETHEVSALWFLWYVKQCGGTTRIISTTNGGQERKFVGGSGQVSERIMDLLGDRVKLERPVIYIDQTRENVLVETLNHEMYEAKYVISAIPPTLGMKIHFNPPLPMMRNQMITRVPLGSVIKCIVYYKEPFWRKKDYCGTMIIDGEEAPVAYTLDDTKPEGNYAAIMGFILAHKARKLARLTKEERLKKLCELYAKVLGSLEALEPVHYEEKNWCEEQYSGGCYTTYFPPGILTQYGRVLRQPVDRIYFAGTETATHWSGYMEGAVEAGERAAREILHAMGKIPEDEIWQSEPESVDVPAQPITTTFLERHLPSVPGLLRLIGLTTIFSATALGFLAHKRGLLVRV
experiment.description: Inhibition of human recombinant MAO-B expressed in insect cell microsomes using kynuramine as substrate assessed as formation of 4-hydroxyquinoline by fluorometric method
The reply should consist of the numeric value with the unit placed after it.

1) Cc1ccc(C(=O)/C=C/c2ccc(F)cc2)o1 :: 924 nM

Now examine the next entry.
Quick one: give measured IC50 for Cc1ccc(C(=O)/C=C/c2ccc(Br)cc2)o1
707 nM
